From: ChEMBL document CHEMBL5360538

tested on: MCF7; assay: cells; conditions: Homo sapiens
assayEndpoint: pIC50
Schema: pIC50 number; meaning minus log10 of the concentration expressed in molar units.

COc1cc(C(=O)c2nn(-c3ccccc3F)nc2N2CC(O)C2)cc(OC)c1OC ... 7.20

Read the next record carefully.
Q: Looking for the measured pIC50 of Clc1ccc(N/N=C/c2cn(-c3cc(Cl)cc(Cl)c3)nn2)cc1 , can you help?
Ans: 5.49

---

tested on: BGC-823; assay: Antiproliferative activity against human BGC-823 cells assessed as inhibition of cell growth incubated for 72 hrs by MTT assay; format: functional, cell-based; conditions: BGC-823, 72 h
assayEndpoint: IC50 (nM)
# value in nM; strip the unit string

Q: Looking for the measured IC50 of Cc1cc(=O)oc2cc(OCc3cn(-c4ccc(S(N)(=O)=O)cc4)nn3)ccc12 , can you help?
Ans: 400

---

assay: Antiproliferative activity against human IMR-90 cells assessed as inhibition of cell growth by MTT assay; type: toxicity, cell-based
assayEndpoint: IC50

Q: Looking for the measured IC50 of COc1cc(/C=C/C(=O)C(Cc2cn(Cc3ccc(Cl)c(Cl)c3)nn2)C(=O)/C=C/c2ccc(O)c(OC)c2)ccc1O , can you help?
Ans: > 100 µM

---

tested on: HT-29; assay: Antiproliferative activity against human HT-29 cells assessed as inhibition of cell growth by MTT assay; format: functional, cell-based
assayEndpoint: IC50 (nM)
# value in nM; strip the unit string

Q: Looking for the measured IC50 of COc1cc(C(=O)c2nn(-c3ccccc3F)nc2N2CC(O)C2)cc(OC)c1OC , can you help?
Ans: 65.4

---

test: Elimination half life in Albino mouse plasma at 1.0 mg/kg, iv; assay type: ADME, organism-based; conditions: read-out: beta t1/2 (converted)
assayEndpoint: half-life (h)
# value in h; strip the unit string

Q: Looking for the measured half-life of O=C1CCCC2=C1C(c1cn(-c3ccc(Cl)cc3)nn1)C1=C(CCCC1=O)N2 , can you help?
Ans: 8.1

Q: Okay, and CCN1CCN(Cc2ccc(Nc3ncc(F)c(-c4cc(F)c5nc(C)n(C(C)C)c5c4)n3)nc2)CC1 [ABEMACICLIB] ?
Ans: 1

---

List of AUC(0-t) values.
test: AUC(0 to t) in Albino mouse at 1.0 mg/kg, iv; format: ADME, organism-based; design: dose 1 mg/kg, route iv; conditions: in vivo
# value in ng·h/mL; strip the unit string

CCN1CCN(Cc2ccc(Nc3ncc(F)c(-c4cc(F)c5nc(C)n(C(C)C)c5c4)n3)nc2)CC1 ... 487

Read the next record carefully.
Q: Looking for the measured AUC(0-t) of O=C1CCCC2=C1C(c1cn(-c3ccc(Cl)cc3)nn1)C1=C(CCCC1=O)N2 , can you help?
Ans: 232

---

test system: NCI-H460; test: Antiproliferative activity against human NCI-H460 cells assessed as inhibition of cell growth incubated for 48 hrs by MTT assay; type: functional, cell-based; settings: NCI-H460, 48 h
pIC50: −log10 of the molar value.
assayEndpoint: pIC50

Q: Looking for the measured pIC50 of COc1ccc2c(c1)OCC(=O)N2Cc1cn(Cc2ccccc2)nn1 , can you help?
Ans: > 5.10

---

assay: Plasma clearance in Albino mouse at 1.0 mg/kg, iv; type: ADME, organism-based
assayEndpoint: clearance (mL/min/kg)
# value in mL/min/kg; strip the unit string

Q: Looking for the measured clearance of CCN1CCN(Cc2ccc(Nc3ncc(F)c(-c4cc(F)c5nc(C)n(C(C)C)c5c4)n3)nc2)CC1 , can you help?
Ans: 43

Q: Okay, and O=C1CCCC2=C1C(c1cn(-c3ccc(Cl)cc3)nn1)C1=C(CCCC1=O)N2 ?
Ans: 15.4

---

assay: AUC(0 to infinity) in BALB/c mouse at 45 mg/kg, ip measured up to 24 hrs; format: ADME, organism-based; design: dose 45 mg/kg, time < 24 hrs, route ip; conditions: in vivo
assayEndpoint: AUC(0-inf) (ng·h/mL)
# value in ng·h/mL; strip the unit string

Q: Looking for the measured AUC(0-inf) of COC(=O)c1cccc(COc2c(-c3ccc(OCCOCCc4cn(CN(Cc5ccccc5)Cn5cc(CCOCCOc6ccc(-c7oc8ccccc8c(=O)c7OCc7cccc(C(=O)OC)c7)cc6)nn5)nn4)cc3)oc3ccccc3c2=O)c1 , can you help?
Ans: 83500

---

test system: MDA-MB-231; assay: Antiproliferative activity against human MDA-MB-231 cells assessed as inhibition of cell growth incubated for 48 hrs by MTT assay; type: functional, cell-based; conditions: MDA-MB-231, 48 h
assayEndpoint: IC50 (nM)
# value in nM; strip the unit string

Q: # returns recorded IC50 (system: MDA-MB-231) for NS(=O)(=O)NCCNC(=O)c1n[nH]nc1-c1ccc(F)c(F)c1
Ans: 77
